Source: patent US11905559B2

test system: lac Z expression; test: β-galactosidase reporter assay (xpt-lacZ fusion); type: cell-based, B. subtilis; details: presence and absence of guanine; B. subtilis
Observable: lac Z expression / transcriptional control (in words)

| Molecule | Test Result |
| --- | --- |
| m1: m1 mutant guanine sensing aptamer RNA (SEQ ID NO: 2); G37 replaced with adenine in the L2 loop (nucleic acid, RNA, backbone and methylation of C not given here, G37 replaced with adenine in the L2 loop) CACUCAUAUAAUCGCGUGGAUAUAGCACGCAAGUUUCUACCGGGCACCGUAAAUGUCCGACUAUGGGUG | completely de-repressed |
| m3: m3 mutant guanine sensing aptamer RNA (SEQ ID NO: 4); G38 replaced with adenine in the L2 loop (nucleic acid, RNA, backbone and methylation of C not given here, G38 replaced with adenine in the L2 loop) CACUCAUAUAAUCGCGUGGAUAUGACACGCAAGUUUCUACCGGGCACCGUAAAUGUCCGACUAUGGGUG | completely de-repressed |
